This collection of values is drawn from the RNAGym collection of RNA variant scans (doi:10.1038/nmeth.2970).

Reported pKd values are given for each entry in this list.
B1: NELF-E aptamer (parent)
chain: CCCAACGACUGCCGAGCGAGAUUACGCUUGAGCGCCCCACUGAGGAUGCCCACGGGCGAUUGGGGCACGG

variants of: B1; test: HiTS-RAP; conditions: with NELF-E (Drosophila)
Keep it numeric: pKd is minus log10 of the concentration in mol/L.

Illustrative cases are given below, each with its answer.
A5G C25G : 8.19
G58C : 7.18
C13G C36G : 8.22
C13G C50U : 7.83
C17G G18A : 8.18
U29G A67G : 8.23
U61G G62U : 8.28
A8C C13G : 8.17
A5G G42A : 7.57

Turning now to a further record.
Q. Given the variant G14U C25U , what is its reported pKd?
A. 8.11
